# Test system: HACAT
# assay.details: qHTS assay to identify novel small-molecules to repurpose for Merkel cell carcinoma treatment (AID 1296009); note: nearly all actives have a fitted effect of over 60% in size
# test.context: MCC and control cell lines, CellTiter-Glo viability, 72 h; at 44.8 µM (top of the series) unless noted
Records with an inconclusive call do not appear. The source made the active and inactive calls. Calls come from the whole dose curve; as a rule, active = well fitted inhibition curve with a large enough effect; inconclusive = small, poorly fitted or top-dose-only effect; inactive = flat fitted curve, though single readings scatter.
assay.readout: outcome

Here's what some known entries look like.
[[record]]
molecule = "COc1ccc(C(=O)N2CCN(CC(=O)N3CCOCC3)CC2)cc1"
assay_readout = "outcome"
observed_result = "inactive"

[[record]]
molecule = "COc1ccccc1OCC(O)CO (stereo not drawn)"
assay_readout = "outcome"
observed_result = "inactive"

[[record]]
molecule = "CN/C(=C\\[N+](=O)[O-])NCCSCc1csc(CN(C)C)n1"
assay_readout = "outcome"
observed_result = "inactive"

[[record]]
molecule = "O=C(NCC(O)CO)c1c(I)c(C(=O)NCC(O)CO)c(I)c(N(CCO)C(=O)CO)c1I (stereo not drawn)"
assay_readout = "outcome"
observed_result = "inactive"


Task item: Item under review: CC(=O)OCC(COC(C)=O)OC(C)=O . Reported outcome?
Reply: inactive

Task item: Item under review: COc1ccc2cc(CCC(C)=O)ccc2c1 . Reported outcome?
Reply: inactive

Task item: Item under review: COc1ccccc1Oc1c(NS(=O)(=O)c2ccc(C(C)(C)C)cc2)nc(-c2ncccn2)nc1OCCO . Reported outcome?
Reply: inactive

Task item: Item under review: CN(C/C=C/C#CC(C)(C)C)Cc1cccc2ccccc12 . Reported outcome?
Reply: inactive

Task item: Item under review: O=C(O)c1cc(=O)c2ccccc2o1 . Reported outcome?
Reply: inactive

Task item: Item under review: Cc1ccc2c(c1)c1c3n2CCNC3CCC1 (stereo not drawn) . Reported outcome?
Reply: inactive

Task item: Item under review: CC1(c2ccccc2)OC(C(=O)O)=CC1=O (stereo not drawn) . Reported outcome?
Reply: inactive

Task item: Item under review: CC(=O)Nc1ccccc1 . Reported outcome?
Reply: inactive

Task item: Item under review: COc1ccc(C(=O)NCc2ccc(OCCN(C)C)cc2)cc1OC . Reported outcome?
Reply: inactive

---

# assay.details: Cell Viability - LYMP2-004 (AID 966);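 note: cells exposed to compound for 24 h; plate controls were DMSO only for no effect and tetraoctylammonium bromide control for full effect; nearly all actives have a fitted effect of over 65% in size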
# test.context: LYMP2-004 lymphoblastoid cell viability, qHTS; series mostly up to 92.2 µM
Records with an inconclusive call do not appear. Activity calls are given as the source filed them. The call rests on the fitted dose curve; in most records, active means well fitted cell-killing curve with a large enough effect; inconclusive means small, poorly fitted or top-dose-only effect, or effect the other way; inactive means no such curve, though single readings can be large or run the other way.
assay.readout: outcome

Here's what some known entries look like.
[[record]]
compound = "O=C1C(c2[nH]c3ccccc3c2O)=Nc2ccccc21"
observed_result = "inactive"

[[record]]
compound = "CCN(CC)C(=O)c1cccc(C)c1"
observed_result = "inactive"

[[record]]
compound = "CC1CC(OC(=O)c2ccccc2O)CC(C)(C)C1 (stereo unspecified)"
observed_result = "inactive"

[[record]]
compound = "Cc1cc(=O)[nH]c(=S)[nH]1"
observed_result = "inactive"

[[record]]
compound = "Cc1c(N(C)C)c(=O)n(-c2ccccc2)n1C"
observed_result = "inactive"

[[record]]
compound = "CC(=O)Nc1ccc(C(=O)O)cc1"
observed_result = "inactive"

[[record]]
compound = "Cc1cc(C)nc(NS(=O)(=O)c2ccc(N)cc2)n1"
observed_result = "inactive"

[[record]]
compound = "CC(=O)OCC(COC(C)=O)OC(C)=O"
observed_result = "inactive"


Task item: Item under review: CCCCCCCC(=O)OCC(COC(=O)CCCCCCC)OC(=O)CCCCCCC . Reported outcome?
Reply: inactive

Task item: Item under review: CC(=O)Nc1cccc(O)c1 . Reported outcome?
Reply: inactive

Task item: Item under review: Nc1ccc(S(=O)(=O)c2ccc(N)cc2)cc1 . Reported outcome?
Reply: inactive

Task item: Item under review: COc1ccc(O)cc1 . Reported outcome?
Reply: inactive

Task item: Item under review: CCCC(O)C(CC)CO (stereo unspecified) . Reported outcome?
Reply: inactive

Task item: Item under review: O=C1c2cccc(O)c2C(=O)c2c(O)cccc21 . Reported outcome?
Reply: inactive

Task item: Item under review: CC(=O)NS(=O)(=O)c1ccc(N)cc1 . Reported outcome?
Reply: inactive

Task item: Item under review: O=C(c1ccccc1)C(O)c1ccccc1 (stereo unspecified) . Reported outcome?
Reply: inactive

---

# assay.details: qHTS assay for small molecule agonists of the antioxidant response element (ARE) signaling pathway (AID 651741); for activation: % of control where 0% means no effect
# test.context: HepG2 ARE-bla reporter, beta-lactamase FRET ratio, 16 h; series mostly up to 96 µM
Inconclusive results are not listed. The source made the active and inactive calls. Calls follow the shape of the dose curve; as a rule, active = well fitted activation curve with a large enough effect in the signal ratio; inconclusive = small, poorly fitted or top-dose-only effect, or effect the other way, or a change in a side signal; inactive = flat fitted curve, though single readings scatter; the % refers to the signal ratio.
Answer with one of the outcomes TRUE (active), FALSE (inactive)

[[record]]
molecule = "O=C1c2cccc(O)c2C(=O)c2c(O)cccc21"
category_label = "TRUE"

[[record]]
molecule = "CC(=O)OCC(COC(C)=O)OC(C)=O"
category_label = "FALSE"

[[record]]
molecule = "COC(=O)c1ccc(O)cc1"
category_label = "TRUE"

[[record]]
molecule = "Cc1cccc(Nc2ccccc2C(=O)O)c1C"
category_label = "TRUE"

[[record]]
molecule = "CCCC(O)C(CC)CO (stereo not drawn)"
category_label = "FALSE"

[[record]]
molecule = "O=C(c1ccccc1)C(O)c1ccccc1 (stereo not drawn)"
category_label = "FALSE"


Task item: // param item: C=CCNC(N)=S ; yields the recorded call
Reply: FALSE

Task item: // param item: CC[N+](CC)(CC(=O)Nc1c(C)cccc1C)Cc1ccccc1 ; yields the recorded call
Reply: FALSE

Task item: // param item: Cc1c(N(C)C)c(=O)n(-c2ccccc2)n1C ; yields the recorded call
Reply: FALSE

Task item: // param item: Cc1cc(O)cc(C)c1Cl ; yields the recorded call
Reply: TRUE

Task item: // param item: Cc1cc(C)nc(NS(=O)(=O)c2ccc(N)cc2)n1 ; yields the recorded call
Reply: FALSE

Task item: // param item: O=C(OOC(=O)c1ccccc1)c1ccccc1 ; yields the recorded call
Reply: FALSE

Task item: // param item: Cc1ccc(C(C)C)c(O)c1 ; yields the recorded call
Reply: FALSE

---

# System: Zika virus NS2B-NS3 protease
# assay.details: Primary screen GU AMC qHTS for Zika virus inhibitors (AID 1347154);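 note: 0% = no-inhibitor control and -100% = no-enzyme control; nearly all actives have a fitted effect of over 70% in size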
# test.context: Zika NS2B-NS3 unlinked protease, AMC fluorogenic substrate; series mostly up to 54.1 µM
Inconclusive results are not listed. The source made the active and inactive calls. Calls come from the whole dose curve; as a rule, active = well fitted inhibition curve with a large enough effect; inconclusive = small, poorly fitted or top-dose-only effect; inactive = flat fitted curve, though single readings scatter.
assay.readout: activity change, negative = inhibition

Here's what some known entries look like.
[[record]]
compound = "O=C(/C=C/c1ccccc1)OCc1ccccc1"
target_desc = "Zika virus NS2B-NS3 protease"
observed_result = "inactive"

[[record]]
compound = "CC(=O)Nc1ccc(C(=O)O)cc1"
target_desc = "Zika virus NS2B-NS3 protease"
observed_result = "inactive"

[[record]]
compound = "Cc1cc(=O)[nH]c(=S)[nH]1"
target_desc = "Zika virus NS2B-NS3 protease"
observed_result = "inactive"

[[record]]
compound = "COc1ccc(C(=O)N2CCN(CC(=O)N3CCOCC3)CC2)cc1"
target_desc = "Zika virus NS2B-NS3 protease"
observed_result = "inactive"

[[record]]
compound = "CC(=O)N[C@@H](Cc1ccc(O)cc1)C(=O)O"
target_desc = "Zika virus NS2B-NS3 protease"
observed_result = "inactive"


Task item: # value lookup — system Zika virus NS2B-NS3 protease, readout activity change, negative = inhibition, item CC(=O)SC[C@@H](Cc1ccccc1)C(=O)NCC(=O)OCc1ccccc1
Reply: inactive

Task item: # value lookup — system Zika virus NS2B-NS3 protease, readout activity change, negative = inhibition, item NC(=O)N[C@@H](CCC(=O)O)C(=O)O
Reply: inactive

Task item: # value lookup — system Zika virus NS2B-NS3 protease, readout activity change, negative = inhibition, item CCCOC(=O)c1ccc(N)cc1
Reply: inactive

---

# Tested on: CP237
# assay.details: qHTS profiling for inhibitors of Plasmodium falciparum proliferation (AID 504749); note: nearly all actives have a fitted effect of over 60% in size
# test.context: P. falciparum in erythrocytes, SYBR Green DNA, 72 h; series mostly up to 28.7 µM
Results filed as inconclusive are left out. Activity calls are given as the source filed them. Calls follow the shape of the dose curve; as a rule, active = well fitted inhibition curve with a large enough effect; inconclusive = small, poorly fitted or top-dose-only effect; inactive = flat fitted curve, though single readings scatter.
Answer with one of the outcomes 1 (yes) (active), 0 (no) (inactive)

Answered examples (3):
[[record]]
compound = "NC(N)=NCCN1CCCCCCC1"
category_label = "0 (no)"

[[record]]
compound = "O=C(O)CCCCC1CCSS1 (stereo not drawn)"
category_label = "0 (no)"

[[record]]
compound = "CCCCCCCCCCOc1cc2c(=O)c(C(=O)OCC)c[nH]c2cc1OCC"
category_label = "1 (yes)"


Task item: // param item: O[C@@H]1CO[C@H]2[C@@H]1OC[C@@H]2O ; yields the recorded call
Reply: 0 (no)

Task item: // param item: CN1CCCN=C1COC(=O)C(O)(c1ccccc1)C1CCCCC1 (stereo not drawn) ; yields the recorded call
Reply: 0 (no)

Task item: // param item: Cn1c([N+](=O)[O-])cnc1COC(N)=O ; yields the recorded call
Reply: 0 (no)

---

# Tested on: OV90
# assay.details: Primary qHTS to identify gynecologic anti-cancer compounds using libraries of approved drugs and bioactive compounds (AID 1345084); note: % is set by controls: 0 for no effect and ±100 for the full control effect; nearly all actives have a fitted effect of over 55% in size
# test.context: Gynecologic cancer cell panel viability, ATPlite luminescence, 48 h; series mostly up to 57.5 µM
Inconclusive results are not listed. Calls of active or inactive are those of the source. Calls follow the shape of the dose curve; as a rule, active = well fitted cell-killing curve with a large enough effect; inconclusive = small, poorly fitted or top-dose-only effect, or effect the other way; inactive = flat fitted curve, though single readings scatter.
assay.readout: activity change, negative = cytotoxicity

Here's what some known entries look like.
[[record]]
molecule = "C=CCNC(N)=S"
observed_result = "inactive"

[[record]]
molecule = "CC[C@]12CCCN3CCc4c(n(c5ccccc45)[C@@](O)(C(=O)OC)C1)[C@@H]32"
observed_result = "inactive"

[[record]]
molecule = "CC(=O)N[C@@H](Cc1ccc(O)cc1)C(=O)O"
observed_result = "inactive"

[[record]]
molecule = "CC(=O)Nc1ccc(OCCOCCOc2ccc(NC(C)=O)cc2)cc1"
observed_result = "inactive"

[[record]]
molecule = "C[C@@H]1CCC[C@H](C)N1"
observed_result = "inactive"

[[record]]
molecule = "O=C1C(c2[nH]c3ccccc3c2O)=Nc2ccccc21"
observed_result = "inactive"


Task item: Item under review: CNc1c2c(nn1C)CCCC2 . Reported activity change, negative = cytotoxicity?
Reply: inactive

Task item: Item under review: CCOC(=O)c1cccnc1 . Reported activity change, negative = cytotoxicity?
Reply: inactive

Task item: Item under review: C[N+](C)(C)CC[N+]1(C)Cc2c(Cl)c(Cl)c(Cl)c(Cl)c2C1 . Reported activity change, negative = cytotoxicity?
Reply: inactive

Task item: Item under review: CCCCCC(C)N (stereo not drawn) . Reported activity change, negative = cytotoxicity?
Reply: inactive

Task item: Item under review: CO[C@@]1(NC(=O)C(C(=O)O)c2ccc(O)cc2)C(=O)N2C(C(=O)O)=C(CSc3nnnn3C)CO[C@@H]21 (stereo partly drawn) . Reported activity change, negative = cytotoxicity?
Reply: inactive
